- target-entity: T1, Factor VIIIa (FVIIIa), from recombinant FVIII (Kogenate FS; Bayer healthcare) activated with alpha-thrombin (UniProt P00451 20-2351)
- T1 sequence (looked up): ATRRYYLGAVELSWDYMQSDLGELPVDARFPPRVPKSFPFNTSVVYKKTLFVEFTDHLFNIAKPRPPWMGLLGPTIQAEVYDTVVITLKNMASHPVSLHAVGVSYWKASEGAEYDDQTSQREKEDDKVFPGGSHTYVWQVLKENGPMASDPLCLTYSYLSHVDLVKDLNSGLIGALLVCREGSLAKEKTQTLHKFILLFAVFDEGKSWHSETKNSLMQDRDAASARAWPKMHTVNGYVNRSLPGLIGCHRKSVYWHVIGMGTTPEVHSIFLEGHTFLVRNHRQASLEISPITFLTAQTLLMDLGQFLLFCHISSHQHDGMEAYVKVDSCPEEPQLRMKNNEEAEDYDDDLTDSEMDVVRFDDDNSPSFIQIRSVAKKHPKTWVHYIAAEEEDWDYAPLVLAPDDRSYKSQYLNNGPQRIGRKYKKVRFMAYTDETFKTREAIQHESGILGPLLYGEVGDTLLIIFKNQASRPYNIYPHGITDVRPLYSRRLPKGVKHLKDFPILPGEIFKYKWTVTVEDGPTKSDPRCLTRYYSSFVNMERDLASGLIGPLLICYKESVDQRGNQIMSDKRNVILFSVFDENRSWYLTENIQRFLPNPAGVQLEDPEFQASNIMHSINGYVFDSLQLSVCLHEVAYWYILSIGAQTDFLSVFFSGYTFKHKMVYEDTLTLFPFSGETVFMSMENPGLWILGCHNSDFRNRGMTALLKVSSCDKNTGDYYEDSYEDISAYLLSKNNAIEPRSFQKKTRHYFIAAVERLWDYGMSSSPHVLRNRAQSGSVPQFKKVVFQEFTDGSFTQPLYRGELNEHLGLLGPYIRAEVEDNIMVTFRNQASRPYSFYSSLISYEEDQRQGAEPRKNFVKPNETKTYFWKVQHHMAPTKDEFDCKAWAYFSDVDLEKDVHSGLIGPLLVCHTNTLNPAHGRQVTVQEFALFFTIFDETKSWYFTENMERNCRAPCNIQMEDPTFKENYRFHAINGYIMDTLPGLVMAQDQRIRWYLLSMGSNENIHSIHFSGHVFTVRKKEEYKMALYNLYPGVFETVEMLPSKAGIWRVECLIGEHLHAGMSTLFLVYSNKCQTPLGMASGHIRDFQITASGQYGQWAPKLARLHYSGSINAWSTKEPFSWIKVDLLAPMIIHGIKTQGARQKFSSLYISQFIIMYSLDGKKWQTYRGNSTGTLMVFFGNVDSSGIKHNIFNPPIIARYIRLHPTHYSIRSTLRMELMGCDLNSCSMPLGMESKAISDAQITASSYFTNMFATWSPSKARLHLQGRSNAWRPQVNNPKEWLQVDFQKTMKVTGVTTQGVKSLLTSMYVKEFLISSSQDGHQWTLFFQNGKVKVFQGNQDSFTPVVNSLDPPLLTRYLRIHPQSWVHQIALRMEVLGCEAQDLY
- assay-procedure: apparent functional KD (KD-app): FX activation rate vs FVIIIa titration, fluorogenic Xase assay with PC/PS vesicles and Ca2+
Collected pKd values appear next to each entry.
Scale note: pKd = -log10(concentration in M).

Before answering, review these 2 worked examples.
FIXa variant D104N/K106S/Y155F/K247N/N249S/N260S (enzyme) light: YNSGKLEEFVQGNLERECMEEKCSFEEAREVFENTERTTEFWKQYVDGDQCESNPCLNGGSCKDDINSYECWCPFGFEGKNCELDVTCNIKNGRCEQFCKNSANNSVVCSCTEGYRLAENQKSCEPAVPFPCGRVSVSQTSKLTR heavy: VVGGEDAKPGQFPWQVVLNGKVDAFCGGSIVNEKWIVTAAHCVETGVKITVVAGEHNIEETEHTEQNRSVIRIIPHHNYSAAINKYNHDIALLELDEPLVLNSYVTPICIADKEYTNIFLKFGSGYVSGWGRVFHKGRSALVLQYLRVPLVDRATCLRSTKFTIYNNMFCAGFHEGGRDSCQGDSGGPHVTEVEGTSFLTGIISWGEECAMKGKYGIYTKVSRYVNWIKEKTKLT
6.85
FIXa variant K228N/K247N/N249S/R318Y/R338E/R403E/E410N (enzyme, also called K63N/K82N/N84S/R150Y/R170E/R233E/E240N) light: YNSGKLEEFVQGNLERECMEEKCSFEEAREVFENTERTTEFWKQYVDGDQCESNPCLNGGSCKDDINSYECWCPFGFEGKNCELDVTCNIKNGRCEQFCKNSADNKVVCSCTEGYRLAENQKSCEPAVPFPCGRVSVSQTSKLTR heavy: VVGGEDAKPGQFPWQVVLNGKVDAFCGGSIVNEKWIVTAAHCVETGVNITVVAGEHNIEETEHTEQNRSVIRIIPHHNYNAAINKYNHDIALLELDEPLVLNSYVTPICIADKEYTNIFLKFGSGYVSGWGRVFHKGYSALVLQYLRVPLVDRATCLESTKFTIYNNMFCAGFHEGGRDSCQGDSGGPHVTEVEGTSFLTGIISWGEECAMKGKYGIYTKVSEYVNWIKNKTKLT
7.00

Form field pKd, entry FIXa variant Y155F/K247N/N249S/R318Y/R338E/E410N (enzyme) light: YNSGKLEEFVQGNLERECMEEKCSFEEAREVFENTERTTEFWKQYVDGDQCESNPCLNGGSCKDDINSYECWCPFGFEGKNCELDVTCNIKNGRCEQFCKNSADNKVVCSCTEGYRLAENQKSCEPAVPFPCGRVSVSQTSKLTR heavy: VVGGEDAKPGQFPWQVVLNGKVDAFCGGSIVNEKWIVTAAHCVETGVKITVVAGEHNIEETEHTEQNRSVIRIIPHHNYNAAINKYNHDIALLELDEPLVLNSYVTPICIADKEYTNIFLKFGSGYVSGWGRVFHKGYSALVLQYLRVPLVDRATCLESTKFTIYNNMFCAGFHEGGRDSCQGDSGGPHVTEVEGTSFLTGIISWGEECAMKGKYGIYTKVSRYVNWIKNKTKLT : 8.13

Form field pKd, entry FIXa variant R318Y/R338E/R403E/E410S (enzyme, also called R150Y/R170E/R233E/E240S) light: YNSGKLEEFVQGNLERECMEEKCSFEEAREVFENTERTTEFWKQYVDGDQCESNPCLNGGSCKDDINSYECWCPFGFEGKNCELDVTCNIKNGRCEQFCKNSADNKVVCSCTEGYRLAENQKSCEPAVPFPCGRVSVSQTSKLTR heavy: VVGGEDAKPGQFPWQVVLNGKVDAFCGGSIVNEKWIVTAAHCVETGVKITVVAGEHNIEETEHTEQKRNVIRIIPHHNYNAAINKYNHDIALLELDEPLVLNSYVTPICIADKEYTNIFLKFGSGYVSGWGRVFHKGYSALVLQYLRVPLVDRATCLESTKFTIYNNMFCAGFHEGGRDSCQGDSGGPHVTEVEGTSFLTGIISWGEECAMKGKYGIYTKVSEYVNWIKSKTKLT : 7.27
